B1: WSB1 (parent)
chain: FSHDGLHVASLADDKMVRFWRIDE

# Variants of: B1
# PROTOCOL: protein stability index of a GFP-peptide fusion (GPS, HEK-293T) (PSI 1-6); higher = more stable;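 also: lentivirally expressed fusions sorted by FACS into six bins by GFP to DsRed ratio, PSI derived from sequencing read proportions per bin multiplied by bin number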
# CONDITION_DETAILS: c terminus: a fixed tail appended
The threshold is inclusive: protein stability index of exactly 2 counts as yes; values below receive no.

Quick check, protein stability index >= 2? V8C
no

Quick check, protein stability index >= 2? D4K
no

Quick check, protein stability index >= 2? W20T
yes

Quick check, protein stability index >= 2? E24I
yes

Quick check, protein stability index >= 2? E24K
no

Quick check, protein stability index >= 2? I22D
yes

Quick check, protein stability index >= 2? V8G
no

Quick check, protein stability index >= 2? I22F
no

Quick check, protein stability index >= 2? D23W
yes
